Hello, the source for this data is the supplement of paper PMC10567573, in case you need it.

B1: TPD52L2 (parent)
chain: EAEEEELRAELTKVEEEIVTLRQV

# Variants of: B1
# PROCEDURE_DETAILS: protein stability index of a GFP-peptide fusion (GPS, HEK-293T) (PSI 1-6); higher = more stable;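 also: lentivirally expressed fusions sorted by FACS into six bins by GFP to DsRed ratio, PSI derived from sequencing read proportions per bin multiplied by bin number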
# EXPERIMENTAL_CONTEXT: c terminus: a fixed tail appended
Class assignment keyed on protein stability index, ranges low range (below 3), mid range (3 to below 4), high range (4 or more)

[Q] Class for `T12P` ?
[A] high range

[Q] Class for `T20F` ?
[A] low range

[Q] Class for `A2V` ?
[A] mid range

[Q] Class for `K13S` ?
[A] high range

[Q] Class for `V24A` ?
[A] high range

[Q] Class for `V14G` ?
[A] mid range
